Assignment: determine reported log10 MBC for the given molecules.
# Tested on: S. mutans (ATCC 25175)
# assay-notes: Determination of the minimum bactericidal concentration (MBC)
# Assay type: cell-based
# test-settings: Streptococcus mutans, ATCC25175; against S. Mutans
Recall that a logarithmic scale is used here: each number is log10 of MBC in µg/mL.

Solved cases below.
C=C(C)C(=O)NCCC[N+](C)(C)CCCCCCCCCCCC[N+](C)(C)CCCNC(=O)C(=C)C.[Br-].[Br-]	2.49
C=C(C)C(=O)Nc1ccc([N+](C)(C)CCCCCCCCCCCC[N+](C)(C)c2ccc(NC(=O)C(C)=O)cc2)cc1.[Br-].[Br-]	1.00

// batch mode: one log10 MBC value per listed entry
1. C=C(C)C(=O)OCC[N+](C)(C)Cc1ccc(C[N+](C)(C)CCOC(=O)C(=C)C)cc1.[Br-].[Br-]
2. C=C(C)C(=O)OCC[N+](C)(C)CCCCCCCCCCCC[N+](C)(C)CCOC(=O)C(=C)C
3. C=C(C)C(=O)NCc1cc[n+](CCCCCCCCCCCC[n+]2ccc(CNC(=O)C(=C)C)cc2)cc1.[Br-].[Br-]
4. C=C(C)C(=O)OCC[N+](CC)(CC)CCCCCCCCCCCC[N+](CC)(CC)CCOC(=O)C(=C)C.[Br-].[Br-]
5. C=C(C)C(=O)OCC[N+](C)(C)CCCCCCCCCCCC[N+](C)(C)CCOC(=O)C(=C)C.[Br-].[Br-]
6. C=C(C)C(=O)NCCC[N+](C)(C)CCCCCCCCCCCC[N+](C)(C)CCCNC(=O)C(=C)C.[F-].[F-]

result:
1: 3.40; 2: 2.50; 3: 0.40; 4: 1.30; 5: 2.48; 6: 2.19

The reported measurements were obtained from patent US20220402872A1.
